Target: T1, human CD20 antigen (human, UniProt P11836 1-297)
T1 construct: whole, on cells; also called CD20/CHO cells; CD20 on Raji cells
T1 sequence (looked up): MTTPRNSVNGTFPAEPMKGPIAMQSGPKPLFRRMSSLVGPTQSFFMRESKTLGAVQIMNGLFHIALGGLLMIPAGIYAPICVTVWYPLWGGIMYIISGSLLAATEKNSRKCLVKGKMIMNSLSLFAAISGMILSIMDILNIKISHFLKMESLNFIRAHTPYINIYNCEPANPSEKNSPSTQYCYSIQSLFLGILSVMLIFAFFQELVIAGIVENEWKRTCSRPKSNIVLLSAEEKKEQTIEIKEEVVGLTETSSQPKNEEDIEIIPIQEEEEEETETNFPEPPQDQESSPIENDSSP
Test: CD20/CHO cell-ELISA, antibody at 100 ng/ml
Entries and their measured A492 follow.
Note: unit A492 is implicit; provide only the numeric part.

Reference set, count: 2
# binder, assay_result
rows = [
    ("chimeric anti-CD20 monoclonal antibody c1K1402 (antibody, V domains shown, Murine variable regions fused to human immunoglobulin H chain and L chain (kappa) constant regions of vector pNOW-Ab) VH: QVQLQQPGAELVKPGASVKMSCKASGFTFTSYNMHWVKQTPGQGLEWIGGIYPGNGDTSYNQKFKGKATLTADKSSSTAYMQLSSLTSEDSAVYYCARFYYYGSMGAMDYWGQGTSVTVSS VL: QIVLSQSPAILSASPGEKVTMTCRASSSVSYMHWYQQKPGSSPKPWIYATSNLASGVPARFSGSGSGTSYSLTITRVEAEDAATYYCQQWTFNPPTFGAGTKLELK", 2.45),
    ("chimeric anti-CD20 monoclonal antibody c1K1782 (antibody, V domains shown, Murine variable regions fused to human immunoglobulin H chain and L chain (kappa) constant regions of vector pNOW-Ab) VH: QVQLQQSGAELAKPGASVKMSCKASGYTFTSYWMHWVKQRPGQGLEWIGYITPSTGYTDYNKKFKDKATLTADRSSSTAYMHLSSLTSEDSAVYYCARSGPYFDVWGAGTTVTVSS VL: DILLTQSPAILFVSPGERVSLSCRASQNIGTSIHWYQQRTNGSPRLLIKYASESFSGIPSRFSGSGSGTDFTLSINSVESEDIADYYCQQSNSWPFTFGSGTKLEIK", 2.1),
]

Measured A492 of chimeric anti-CD20 monoclonal antibody c1K1791 (antibody, V domains shown, Murine variable regions fused to human immunoglobulin H chain and L chain (kappa) constant regions of vector pNOW-Ab) VH: QIQLVQSGPELKKPGETVKISCKASGYTFTNFGVNWVKQAPGKGLKWMGWINTYTGEPSYADDFKGRFAFSLEASANTAYLQINNLKNDDMSTYFCTRRTNYYGTSYYYAMDYWGQGTSVTVSS VL: STVMTQTPKFLLVSAGDRVTITCKASQSVSNDVAWYQQKPGQSPKVLIYFASNRYTGVPDRFTGSGYGTDFTFTINTVQAEDLAVYFCQQDYSSPLTFGAGTKLELK : 2.23
